- Target Under Test: T1, hCMV gH + gL + UL128 + UL130 + UL131A (5-member complex; HEK293T co-transfectant) (hCMV, UniProt P12824 24-743; P16832 31-278; P16837 1-171; P16772 1-214)
- T1 construct: whole, on cells; in the functional rows it stands for the complex on virions or transduced cells of the strain or isolate named in the readout; also called gH/gL/UL128-131A complex; pentameric complex
- Assay Name: cell competition; competitor 8J16-biotin
Parameter: Inhibition of binding (%)
Expressed in %, but write only the number.

Inhibition of binding (%) measured on 8J16 (antibody, V domains shown, human IgG; also called 8J16-biotin) VH: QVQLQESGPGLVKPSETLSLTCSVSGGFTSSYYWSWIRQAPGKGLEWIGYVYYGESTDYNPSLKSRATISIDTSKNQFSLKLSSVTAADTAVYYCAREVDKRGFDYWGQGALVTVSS VL: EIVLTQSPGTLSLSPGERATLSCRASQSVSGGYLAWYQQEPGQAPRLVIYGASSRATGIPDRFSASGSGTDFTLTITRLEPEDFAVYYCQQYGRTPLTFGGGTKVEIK = 100
